MEASURED TARGET: Long-chain-fatty-acid--AMP ligase FadD28 (Mycobacterium tuberculosis, UniProt P9WQ59)
Sequence (P9WQ59 whole entry): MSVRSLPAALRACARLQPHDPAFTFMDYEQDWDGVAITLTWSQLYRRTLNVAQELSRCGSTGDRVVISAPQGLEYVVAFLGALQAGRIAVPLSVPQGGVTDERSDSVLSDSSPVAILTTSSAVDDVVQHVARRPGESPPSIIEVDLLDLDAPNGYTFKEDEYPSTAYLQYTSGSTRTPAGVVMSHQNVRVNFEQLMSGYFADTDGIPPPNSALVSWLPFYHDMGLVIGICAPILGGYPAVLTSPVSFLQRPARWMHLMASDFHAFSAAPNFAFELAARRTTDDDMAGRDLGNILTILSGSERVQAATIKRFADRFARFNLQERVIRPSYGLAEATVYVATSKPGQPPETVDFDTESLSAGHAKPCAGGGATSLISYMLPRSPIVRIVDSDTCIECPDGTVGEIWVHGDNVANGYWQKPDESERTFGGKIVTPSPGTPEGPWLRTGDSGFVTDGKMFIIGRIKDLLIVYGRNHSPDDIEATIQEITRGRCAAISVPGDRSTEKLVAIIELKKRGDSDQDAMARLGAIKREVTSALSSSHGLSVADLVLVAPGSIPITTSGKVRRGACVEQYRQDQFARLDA
ASSAY METHOD TEXT: Fluorescence polarization aasay to screen for inhibitors that compete for the binding of FadD28 to a bisubstrate Measured in Biochemical System Using Plate Reader - 2147-01_Inhibitor_Dose_CherryPick_Activity.
Assay type: functional, Mycobacterium tuberculosis H37Rv
The source made the active and inactive calls.
I would appreciate it if you answered using one of these outcomes: active, inactive

Prompt line: Per the records of this test, what outcome belongs to "Cn1c(O)c(/C=N/NC(=O)c2cc3ccccc3cc2O)c2ccccc21" ?
Response line: inactive

Prompt line: Next entry: "Cc1cccc(NC(=O)CN2C(=O)S/C(=C\c3cc(C)n(C)c3C)C2=O)c1"
Response line: active

Prompt line: Next up: "C=CCn1cc(CN2CCC(C(=O)Nc3ccc(Oc4cccnc4)cc3)CC2)c(C)n1"
Response line: active

Prompt line: Let us now turn to "COc1cccc2sc(NN)nc12"
Response line: inactive

Prompt line: Input "O=c1cc(Nc2ccc3c(c2)OCCO3)[nH]c(=O)n1C1CCCCC1"
Response line: active

====

ASSAY METHOD TEXT: non-specific 3'UTR reporter inhibition in Clone20-Shn3RL – cell-based, Renilla luciferase, cherry-picked, counter-screen for Shn3 inhibitor project, dose response (AID 624133)
Type: functional
Active and inactive are the calls of the source.
Answer each item with its documented AC50.

Prompt line: Which AC50 is listed for "NC1=NC[C@H](c2ccccc2)N1CCCCC1CCCCC1" ?
Response line: 3.11 µM (active)

Prompt line: Entry to check: "CCN1CCN(Cc2ccc(NC(=O)c3ccc(C)c(/C=C/c4cnc(Nc5cc(N6CCNCC6)nc(C)n5)cn4)c3)cc2C(F)(F)F)CC1"
Response line: 27.6 µM (active)

Prompt line: Let us now turn to "CCOc1cc(S(=O)(=O)NCc2ccncc2)ccc1Cl"
Response line: < 0.26 µM (active)

Prompt line: Now the compound CCOC(=O)C1CCN(C(=O)C(C)N(c2ccc(Oc3ccccc3)cc2)S(C)(=O)=O)CC1 (centres undefined)
Response line: 9.34 µM (active)
